molecular target: PARP1 (Homo sapiens, UniProt P09874)
Sequence (P09874 whole entry): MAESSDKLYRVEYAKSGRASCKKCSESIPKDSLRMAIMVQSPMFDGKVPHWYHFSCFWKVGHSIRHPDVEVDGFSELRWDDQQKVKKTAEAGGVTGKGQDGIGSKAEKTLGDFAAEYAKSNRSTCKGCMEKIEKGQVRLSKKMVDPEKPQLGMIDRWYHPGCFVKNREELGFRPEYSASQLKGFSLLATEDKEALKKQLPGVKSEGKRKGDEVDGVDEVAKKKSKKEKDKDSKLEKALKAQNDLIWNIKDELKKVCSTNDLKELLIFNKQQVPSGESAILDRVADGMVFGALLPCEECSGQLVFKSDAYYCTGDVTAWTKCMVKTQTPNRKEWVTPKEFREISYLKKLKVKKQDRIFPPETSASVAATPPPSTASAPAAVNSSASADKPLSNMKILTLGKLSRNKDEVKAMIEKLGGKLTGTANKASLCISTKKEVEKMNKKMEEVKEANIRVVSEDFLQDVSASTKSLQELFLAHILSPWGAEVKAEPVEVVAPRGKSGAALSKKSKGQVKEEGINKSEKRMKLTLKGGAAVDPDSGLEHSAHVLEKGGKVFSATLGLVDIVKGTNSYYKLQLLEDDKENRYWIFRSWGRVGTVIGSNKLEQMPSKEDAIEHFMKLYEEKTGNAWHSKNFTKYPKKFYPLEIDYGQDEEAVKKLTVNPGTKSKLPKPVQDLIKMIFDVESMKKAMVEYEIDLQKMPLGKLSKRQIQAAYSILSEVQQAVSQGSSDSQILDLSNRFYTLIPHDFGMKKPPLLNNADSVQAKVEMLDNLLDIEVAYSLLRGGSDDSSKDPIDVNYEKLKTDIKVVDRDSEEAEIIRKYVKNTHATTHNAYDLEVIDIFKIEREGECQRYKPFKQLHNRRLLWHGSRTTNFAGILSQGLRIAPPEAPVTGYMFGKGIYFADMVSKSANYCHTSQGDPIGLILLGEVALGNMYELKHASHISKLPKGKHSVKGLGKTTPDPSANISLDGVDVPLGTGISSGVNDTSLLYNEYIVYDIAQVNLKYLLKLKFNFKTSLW
Just a reminder that ties go to Not met: only IC50 strictly below 10 nM counts as Met.

See these solved cases before continuing.
INSERT INTO results (compound, cat) VALUES
  ('Nc1ccccc1NC(=O)/C=C/c1ccc(CN2CCN(C(=O)c3cc(Cc4n[nH]c(=O)c5ccccc45)ccc3F)CC2)cc1 [Compound B101]', 'Not met'),
  ('Nc1cc(F)ccc1NC(=O)CCc1ccc(CN2CCN(C(=O)c3cc(Cc4n[nH]c(=O)c5ccccc45)ccc3F)CC2)cc1 [Compound B302]', 'Not met'),
  ('Nc1ccccc1NC(=O)CCc1ccc(CN2CCN(C(=O)c3cc(Cc4n[nH]c(=O)c5ccccc45)ccc3F)CC2)cc1 [Compound B301]', 'Not met'),
  ('Nc1cc(F)ccc1NC(=O)Cc1ccc(CN2CCN(C(=O)c3cc(Cc4n[nH]c(=O)c5ccccc45)ccc3F)CC2)cc1 [Compound B202]', 'Not met'),
  ('Nc1ccccc1NC(=O)Cc1ccc(CN2CCN(C(=O)c3cc(Cc4n[nH]c(=O)c5ccccc45)ccc3F)CC2)cc1 [Compound B201]', 'Met');

Query: Is it true that IC50 reported for Nc1cc(F)ccc1NC(=O)/C=C/c1ccc(CN2CCN(C(=O)c3cc(Cc4n[nH]c(=O)c5ccccc45)ccc3F)CC2)cc1 [Compound B102] is less than 10 nM?
Reply: Not met

---

Entries and their pIC50
target: recombinant HDAC1 (Homo sapiens, UniProt Q13547); test: HDAC1 inhibition assay (Ac-peptide-AMC fluorescence)
Sequence (Q13547 whole entry): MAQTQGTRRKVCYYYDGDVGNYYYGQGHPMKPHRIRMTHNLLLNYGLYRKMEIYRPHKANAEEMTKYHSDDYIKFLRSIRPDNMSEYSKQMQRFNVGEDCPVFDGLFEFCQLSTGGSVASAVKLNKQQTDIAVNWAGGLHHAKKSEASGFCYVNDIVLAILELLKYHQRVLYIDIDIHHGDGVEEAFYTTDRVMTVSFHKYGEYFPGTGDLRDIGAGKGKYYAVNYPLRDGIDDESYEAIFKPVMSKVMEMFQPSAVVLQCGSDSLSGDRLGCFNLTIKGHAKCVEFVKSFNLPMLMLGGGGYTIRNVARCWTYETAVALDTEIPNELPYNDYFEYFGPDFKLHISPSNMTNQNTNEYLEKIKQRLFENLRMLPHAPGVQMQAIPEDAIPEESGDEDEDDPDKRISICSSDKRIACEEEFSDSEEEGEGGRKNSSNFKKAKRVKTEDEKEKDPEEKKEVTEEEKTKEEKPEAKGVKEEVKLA
pIC50: −log10 of the molar value.

Examples with their reported pIC50 follow.
INSERT INTO results (compound_structure, tested_target, obs_value) VALUES
  ('Nc1ccccc1NC(=O)CCc1ccc(CN2CCN(C(=O)c3cc(Cc4n[nH]c(=O)c5ccccc45)ccc3F)CC2)cc1', 'recombinant HDAC1 (Homo sapiens, UniProt Q13547)', '< 5.00'),
  ('Nc1cc(F)ccc1NC(=O)CCN1CCN(C(=O)c2cc(Cc3n[nH]c(=O)c4ccccc34)ccc2F)CC1', 'recombinant HDAC1 (Homo sapiens, UniProt Q13547)', '< 5.00'),
  ('Nc1cc(F)ccc1NC(=O)Cc1ccc(CN2CCN(C(=O)c3cc(Cc4n[nH]c(=O)c5ccccc45)ccc3F)CC2)cc1', 'recombinant HDAC1 (Homo sapiens, UniProt Q13547)', 6.80),
  ('Nc1cc(F)ccc1NC(=O)/C=C/c1ccc(CN2CCN(C(=O)c3cc(Cc4n[nH]c(=O)c5ccccc45)ccc3F)CC2)cc1', 'recombinant HDAC1 (Homo sapiens, UniProt Q13547)', 5.77),
  ('Nc1cc(F)ccc1NC(=O)CCc1ccc(CN2CCN(C(=O)c3cc(Cc4n[nH]c(=O)c5ccccc45)ccc3F)CC2)cc1', 'recombinant HDAC1 (Homo sapiens, UniProt Q13547)', '< 5.00'),
  ('Nc1ccccc1NC(=O)Cc1ccc(CN2CCN(C(=O)c3cc(Cc4n[nH]c(=O)c5ccccc45)ccc3F)CC2)cc1', 'recombinant HDAC1 (Homo sapiens, UniProt Q13547)', 7.22);

Query: API: value(readout= pIC50, system= recombinant HDAC1 (Homo sapiens, UniProt Q13547), query= "Nc1ccccc1NC(=O)CCN1CCN(C(=O)c2cc(Cc3n[nH]c(=O)c4ccccc34)ccc2F)CC1" )
Reply: < 5.00

Query: Provide value of pIC50 for this record tested with recombinant HDAC1 (Homo sapiens, UniProt Q13547): "Nc1cc(F)ccc1NC(=O)CCCN1CCN(C(=O)c2cc(Cc3n[nH]c(=O)c4ccccc34)ccc2F)CC1"
Reply: < 5.00

Query: Which measured pIC50 belongs to "Nc1ccccc1NC(=O)CCCN1CCN(C(=O)c2cc(Cc3n[nH]c(=O)c4ccccc34)ccc2F)CC1" , tested on recombinant HDAC1 (Homo sapiens, UniProt Q13547)?
Reply: < 5.00

Query: Missing value: pIC50, recombinant HDAC1 (Homo sapiens, UniProt Q13547), entry "Nc1cc(F)ccc1NC(=O)CN1CCN(C(=O)c2cc(Cc3n[nH]c(=O)c4ccccc34)ccc2F)CC1" . Fill in?
Reply: < 5.00

Query: Form field - read-out: pIC50; system: recombinant HDAC1 (Homo sapiens, UniProt Q13547); submitted item: "Nc1ccccc1NC(=O)/C=C/c1ccc(CN2CCN(C(=O)c3cc(Cc4n[nH]c(=O)c5ccccc45)ccc3F)CC2)cc1"
Reply: 6.92

Query: Test system recombinant HDAC1 (Homo sapiens, UniProt Q13547); read-out pIC50; what value for "Nc1ccccc1NC(=O)CN1CCN(C(=O)c2cc(Cc3n[nH]c(=O)c4ccccc34)ccc2F)CC1" ?
Reply: < 5.00
